Target: GDP-loaded KRAS G12D (Homo sapiens, UniProt P01116, G12D)
Sequence (P01116 1-188 isoform P01116-2 G12D): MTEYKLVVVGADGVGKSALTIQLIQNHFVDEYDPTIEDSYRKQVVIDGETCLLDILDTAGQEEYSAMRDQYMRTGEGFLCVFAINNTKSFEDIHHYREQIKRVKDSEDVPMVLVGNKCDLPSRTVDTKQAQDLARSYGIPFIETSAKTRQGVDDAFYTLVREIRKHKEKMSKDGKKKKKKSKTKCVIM
Test: KRAS G12D Probe Displacement Assay
Format: binding
metric name: pIC50
Would you please state pIC50, meaning minus log10 of the concentration in mol/L, as a bare number?

- compound: "Cc1cc(N)nc(-c2c(Cl)cc3c(N4CC5CCC(C4)N5)nc(OC[C@@]45CCCN4C[C@H](F)C5)nc3c2F)c1C(F)(F)F [Example E49]"
  metric name: "pIC50"
  measured: 8.51

// next entry
Fill in: GDP-loaded KRAS G12D (Homo sapiens, UniProt P01116, G12D) pIC50 for Cc1cc(N)nc(-c2c(Cl)cc3c(N4CC5CCC(C4)N5)nc(OCC45CCCN4CC(F)C5)nc3c2F)c1C(F)(F)F (centres unmarked) [Example E50] = 8.40
